TEST_SUMMARY: Stability in human plasma (enzymatic hydrolysis)
CONDITION: 24h
READOUT_NAME: Degradation (%) 24h

INSERT INTO measurements (compound, reported_result) VALUES
  ('CCCCCCCCOC(=O)c1cc([N+](=O)[O-])cc(C(F)(F)F)c1', 42),
  ('CCCCOC(=O)c1cc([N+](=O)[O-])cc(C(F)(F)F)c1', 95),
  ('CCCCCCOC(=O)c1ccccc1 [Compound 1b, Hexyl benzoate]', 94),
  ('CCCCCCOC(=O)c1cc([N+](=O)[O-])cc(C(F)(F)F)c1', 72),
  ('CCCCNC(=O)c1ccc([N+](=O)[O-])cc1 [Compound 6a, N-butyl-4-nitrobenzamide]', 12),
  ('CCCCCCCCCCCCOC(=O)c1cc([N+](=O)[O-])cc(C(F)(F)F)c1', 1),
  ('CCCCCCCCCCCCNC(=O)c1cc([N+](=O)[O-])cc(C(F)(F)F)c1', 0),
  ('CCCCCCCCCCCCCCOC(=O)c1cc([N+](=O)[O-])cc([N+](=O)[O-])c1', 23),
  ('CCCCCCCCOC(=O)c1ccc([N+](=O)[O-])cc1 [Compound 2c, Octyl 4-nitrobenzoate]', 100),
  ('CCCCCCCCOC(=O)c1ccccc1 [Compound 1c, Octyl benzoate]', 45),
  ('CCCCCCOC(=O)c1cc([N+](=O)[O-])cc([N+](=O)[O-])c1', 74),
  ('CCCCCCCCOC(=O)c1cc([N+](=O)[O-])cc([N+](=O)[O-])c1', 57),
  ('CCCCNC(=O)c1cc([N+](=O)[O-])cc(C(F)(F)F)c1', 0),
  ('CCCCCCCCCCOC(=O)c1cc([N+](=O)[O-])cc(C(F)(F)F)c1', 26),
  ('CCCCOC(=O)c1cc([N+](=O)[O-])cc([N+](=O)[O-])c1', 86),
  ('CCCCNC(=O)c1ccccc1 [Compound 5a, N-butyl-benzamide]', 0),
  ('CCCCNC(=O)c1cc([N+](=O)[O-])cc([N+](=O)[O-])c1 [Compound 7a, N-butyl-3.5-dinitrobenzamide]', 0),
  ('CCCCCCCCCCCCNC(=O)c1ccccc1 [Compound 5e, N-dodecyl-benzamide]', 0);

* * *

This section presents compounds with their documented MBC values.
Tested on: M. bovis BCG
TEST_SUMMARY: microbe, parasite or virus in culture
Assay type: cell-based
CONDITION: Mycobacterium tuberculosis variant bovis BCG
READOUT_NAME: MBC (µg/mL)

INSERT INTO measurements (compound, reported_result) VALUES
  ('CCCCCCCCCCCCNC(=O)c1cc([N+](=O)[O-])cc([N+](=O)[O-])c1 [Compound 7e, N-dodecyl-3.5-dinitrobenzamide]', 0.166),
  ('CCCCCCCCCCCCCCCCNC(=O)c1cc([N+](=O)[O-])cc([N+](=O)[O-])c1 [Compound 7g, N-hexadecyl-3.5-dinitrobenzamide]', 4),
  ('CCCCCCCCCCNC(=O)c1cc([N+](=O)[O-])cc([N+](=O)[O-])c1 [Compound 7d, N-decyl-3.5-dinitrobenzamide]', 0.062);

* * *

TEST_SUMMARY: Stability in human plasma (enzymatic hydrolysis)
CONDITION: 72h
Quick reference for Degradation (%) 72h among some molecules
READOUT_NAME: Degradation (%) 72h

INSERT INTO assay_data (molecule, readout_name, unit_abbrev, reported_result) VALUES
  ('CCCCCCCCCCCCNC(=O)c1cc([N+](=O)[O-])cc([N+](=O)[O-])c1 [Compound 7e, N-dodecyl-3.5-dinitrobenzamide]', 'Degradation (%) 72h', '%', 0),
  ('CCCCCCCCCCCCNC(=O)c1ccccc1 [Compound 5e, N-dodecyl-benzamide]', 'Degradation (%) 72h', '%', 0),
  ('CCCCNC(=O)c1ccccc1 [Compound 5a, N-butyl-benzamide]', 'Degradation (%) 72h', '%', 0),
  ('CCCCCCCCNC(=O)c1ccc([N+](=O)[O-])cc1 [Compound 6c, N-octyl-4-nitrobenzamide]', 'Degradation (%) 72h', '%', 1),
  ('CCCCCCCCOC(=O)c1ccc([N+](=O)[O-])cc1 [Compound 2c, Octyl 4-nitrobenzoate]', 'Degradation (%) 72h', '%', 100),
  ('CCCCNC(=O)c1cc([N+](=O)[O-])cc([N+](=O)[O-])c1 [Compound 7a, N-butyl-3.5-dinitrobenzamide]', 'Degradation (%) 72h', '%', 0),
  ('CCCCCCCCCCCCOC(=O)c1ccccc1 [Compound 1e, Dodecyl benzoate]', 'Degradation (%) 72h', '%', 9),
  ('CCCCCCCCCCCCCCOC(=O)c1cc([N+](=O)[O-])cc([N+](=O)[O-])c1 [Compound 3f]', 'Degradation (%) 72h', '%', 65);
